Exercise: state measured growth inhibition for each of the compounds provided.
- measurement_description: NCI Yeast Anticancer Drug Screen. Data for the sgs1 mgt1 strain (AID 161);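 note: 0% = growth of cultures given vehicle only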
- reported_conditions: S. cerevisiae sgs1 mgt1 strain, at 50.0 µM, hits give high values
This is part of a sample that, as a whole, favours compounds with a hit. Of some 79,000 tested, about 15% had one in any assay. Calls of active or inactive are those of the source. Cut-off read from the data, not from the text of the source: active = growth inhibition above about 70%; inactive = the rest.

Exercise: Return reported growth inhibition; argument: O=CNC(CSC(c1ccccc1)c1ccccc1)C(=O)O (stereo not given)
Key: -10.9% (inactive)

Exercise: Return reported growth inhibition; argument: COc1cc(C)c(OP(=O)(OC)OC)cc1C
Key: 13.6% (inactive)

Exercise: Return reported growth inhibition; argument: COP1(=S)OCC2OC(n3cc(C)c(=O)[nH]c3=O)CC2O1 (stereo not given)
Key: -12.8% (inactive)

Exercise: Return reported growth inhibition; argument: CC1=CC(=O)C2=C(C)C[C@H](O)[C@@H]3[C@H](OC(=O)[C@H]3C)[C@@H]12
Key: 6.4% (inactive)

Exercise: Return reported growth inhibition; argument: C[C@]12CC[C@H]3[C@@H](CC[C@]4(O)C[C@@H](O)CC[C@]34CO)[C@@]1(O)CC[C@@H]2C1=CC(=O)OC1
Key: -17.6% (inactive)

Exercise: Return reported growth inhibition; argument: CC(=O)OC1CC2(O)C(CCC3(C)C(c4ccc(=O)oc4)CCC32O)C2(C)CCC(O)C=C12 (stereo not given)
Key: -1.75% (inactive)

Exercise: Return reported growth inhibition; argument: CC(C)(C)SCC(NC(=O)OCc1ccccc1)C(=O)O (stereo not given)
Key: 14.3% (inactive)

Exercise: Return reported growth inhibition; argument: N#CCC#N
Key: 16.3% (inactive)

Exercise: Return reported growth inhibition; argument: CC1=C[C@H]2O[C@@H]3[C@H](OC(=O)CCl)[C@@H](O)[C@](C)(C2(COC(=O)CCl)CC1)[C@@]31CO1 (stereo not given in full)
Key: 92.7% (active)

Exercise: Return reported growth inhibition; argument: O=C(O)Cc1ccc2c(c1)OCO2
Key: 28.1% (inactive)
